target: Peroxisome proliferator-activated receptor gamma/Nuclear receptor coactivator 2 (Homo sapiens, UniProt P37231); assay: TR-FRET dose response biochemical High Throughput Screening assay for agonists of the steroid receptor coactivator 2 (SRC-2) recruitment by the peroxisome proliferator-activated receptor gamma (PPAR gamma): non-selective agonists. [Related pubchem assays: 1297, 1032 ]; format: functional
Sequence (P37231 whole entry): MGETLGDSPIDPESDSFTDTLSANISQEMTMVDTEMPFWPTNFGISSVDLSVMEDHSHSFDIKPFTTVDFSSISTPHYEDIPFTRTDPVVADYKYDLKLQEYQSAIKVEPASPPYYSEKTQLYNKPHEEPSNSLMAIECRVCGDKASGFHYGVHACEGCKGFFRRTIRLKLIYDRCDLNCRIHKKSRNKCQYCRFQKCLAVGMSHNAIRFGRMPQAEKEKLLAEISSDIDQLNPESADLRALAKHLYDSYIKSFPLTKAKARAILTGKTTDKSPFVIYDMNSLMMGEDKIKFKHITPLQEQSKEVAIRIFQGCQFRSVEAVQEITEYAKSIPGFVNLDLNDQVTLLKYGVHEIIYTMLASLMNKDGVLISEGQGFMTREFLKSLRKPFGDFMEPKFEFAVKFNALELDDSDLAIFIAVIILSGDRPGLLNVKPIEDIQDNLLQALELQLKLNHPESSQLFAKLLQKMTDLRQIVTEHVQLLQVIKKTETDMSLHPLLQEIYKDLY
Sequence (Q15596 whole entry, further chain): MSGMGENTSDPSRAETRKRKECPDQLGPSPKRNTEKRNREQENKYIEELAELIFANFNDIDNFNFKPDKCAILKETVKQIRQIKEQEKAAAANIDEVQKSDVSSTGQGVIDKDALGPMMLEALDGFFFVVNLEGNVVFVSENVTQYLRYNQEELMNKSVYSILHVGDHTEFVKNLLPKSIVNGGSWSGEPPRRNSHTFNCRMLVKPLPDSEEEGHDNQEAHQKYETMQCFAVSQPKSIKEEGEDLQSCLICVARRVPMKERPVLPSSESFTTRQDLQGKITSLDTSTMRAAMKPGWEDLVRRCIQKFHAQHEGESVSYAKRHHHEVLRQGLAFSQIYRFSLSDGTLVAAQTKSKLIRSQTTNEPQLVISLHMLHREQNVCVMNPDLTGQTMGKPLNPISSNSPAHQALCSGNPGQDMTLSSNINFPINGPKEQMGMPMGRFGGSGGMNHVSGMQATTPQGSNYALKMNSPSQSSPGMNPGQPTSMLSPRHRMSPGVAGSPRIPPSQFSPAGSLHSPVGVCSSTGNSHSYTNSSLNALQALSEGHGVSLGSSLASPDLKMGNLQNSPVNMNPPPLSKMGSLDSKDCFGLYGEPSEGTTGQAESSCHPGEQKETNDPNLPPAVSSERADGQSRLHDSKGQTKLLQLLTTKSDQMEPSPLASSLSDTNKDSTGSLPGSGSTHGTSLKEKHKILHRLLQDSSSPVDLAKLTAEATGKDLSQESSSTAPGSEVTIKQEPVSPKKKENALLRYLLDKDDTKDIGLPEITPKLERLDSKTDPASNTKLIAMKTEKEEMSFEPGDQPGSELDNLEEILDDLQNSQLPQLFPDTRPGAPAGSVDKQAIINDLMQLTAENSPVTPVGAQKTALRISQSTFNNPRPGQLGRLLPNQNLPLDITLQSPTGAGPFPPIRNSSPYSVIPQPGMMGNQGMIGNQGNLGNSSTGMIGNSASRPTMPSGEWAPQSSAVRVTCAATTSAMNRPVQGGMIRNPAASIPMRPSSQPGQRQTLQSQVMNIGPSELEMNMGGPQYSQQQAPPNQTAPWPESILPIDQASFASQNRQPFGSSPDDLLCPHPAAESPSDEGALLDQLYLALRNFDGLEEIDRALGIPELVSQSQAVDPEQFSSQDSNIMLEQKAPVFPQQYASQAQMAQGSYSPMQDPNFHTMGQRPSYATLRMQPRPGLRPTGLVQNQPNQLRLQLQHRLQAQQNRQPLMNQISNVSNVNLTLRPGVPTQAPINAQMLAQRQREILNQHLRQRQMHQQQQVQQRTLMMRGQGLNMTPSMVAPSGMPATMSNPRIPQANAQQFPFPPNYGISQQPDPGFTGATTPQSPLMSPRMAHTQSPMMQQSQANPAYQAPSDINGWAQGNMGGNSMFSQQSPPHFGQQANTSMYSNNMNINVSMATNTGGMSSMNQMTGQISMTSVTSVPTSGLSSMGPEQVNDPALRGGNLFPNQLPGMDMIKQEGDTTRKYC
Calls of active or inactive are those of the source.
Would you kindly list EC50 for each of these compounds?

**Q:** Quick one: EC50 of CC(C)Sc1oc(-c2ccco2)nc1S(=O)(=O)c1ccccc1 ?
**A:** 9.32 µM (active)

**Q:** Okay, and COC(=O)c1cc(Br)c(=O)n(-c2nccs2)c1 ?
**A:** > 79.4 µM (not active)

**Q:** Okay, and ClCc1csc(-c2ccccc2Cl)n1 ?
**A:** > 79.4 µM (not active)

Kindly review the next compound as well.
**Q:** Quick one: EC50 of O=c1c(Cl)c(N2CCN(S(=O)(=O)c3ccc(F)cc3)CC2)cnn1-c1cccc(Cl)c1 ?
**A:** 9.06 µM (active)

====

target: Type-1 angiotensin II receptor (Homo sapiens, UniProt P30556); test: antagonism of angiotensin II type 1 receptor – cell-based, uHTS hits, selectivity assay for APJ receptor antagonist project, dose response (AID 463214); assay type: functional;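 note: antagonist potency against angiotensin II stimulated AT1 response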
Sequence (P30556 whole entry): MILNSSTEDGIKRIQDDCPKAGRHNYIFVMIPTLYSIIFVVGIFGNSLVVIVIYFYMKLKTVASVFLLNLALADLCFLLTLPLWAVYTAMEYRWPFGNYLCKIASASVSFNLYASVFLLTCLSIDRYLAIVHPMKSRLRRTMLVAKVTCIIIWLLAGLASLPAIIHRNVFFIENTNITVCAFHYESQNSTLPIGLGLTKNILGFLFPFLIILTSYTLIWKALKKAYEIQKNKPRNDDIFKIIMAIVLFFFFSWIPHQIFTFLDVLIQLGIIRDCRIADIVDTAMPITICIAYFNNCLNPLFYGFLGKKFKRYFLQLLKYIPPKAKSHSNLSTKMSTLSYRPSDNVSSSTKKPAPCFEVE
The source made the active and inactive calls.
Would you kindly list IC50 for each of these compounds?

Would you please look over these solved cases?
**Q:** Quick one: IC50 of COc1cccc(NC(=S)N/N=C2\CC3CCC2(C)C3(C)C)c1 (stereo not given) ?
**A:** 27.4 µM (not active)

**Q:** Okay, and CCc1ccc(C(=O)NNc2ccc(C)c(Cl)c2)cc1 ?
**A:** 2.55 µM (active)

**Q:** Okay, and c1ccc(-c2nc(N3CCCCCC3)c3ccccc3n2)nc1 ?
**A:** > 40 µM (not active)

Provide IC50 values for the following items, in order.
1. CCOC(=O)c1c(C2COc3ccccc3O2)csc1NC(=O)c1ccco1 (stereo not given)
2. CCC(=O)OCCNc1cc(Sc2nc3ccccc3s2)c2nonc2c1[N+](=O)[O-]

**A:**
1: > 40 µM (not active); 2: 3.51 µM (active)

====

target: Induced myeloid leukemia cell differentiation protein Mcl-1 (Homo sapiens, UniProt Q07820); assay type: functional
Sequence (Q07820 whole entry): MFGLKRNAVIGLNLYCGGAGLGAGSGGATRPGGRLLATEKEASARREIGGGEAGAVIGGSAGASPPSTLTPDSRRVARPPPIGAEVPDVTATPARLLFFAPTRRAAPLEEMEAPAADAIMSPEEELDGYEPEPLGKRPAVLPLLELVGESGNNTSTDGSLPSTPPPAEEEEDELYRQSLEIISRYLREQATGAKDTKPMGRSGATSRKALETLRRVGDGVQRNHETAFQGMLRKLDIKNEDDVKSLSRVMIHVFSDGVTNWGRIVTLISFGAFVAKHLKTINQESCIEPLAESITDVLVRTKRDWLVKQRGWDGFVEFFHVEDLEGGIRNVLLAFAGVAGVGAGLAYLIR
Calls of active or inactive are those of the source.
Would you kindly list IC50 for each of these molecules?

**Q:** Provide the documented IC50 with Induced myeloid leukemia cell differentiation protein Mcl-1 (Homo sapiens, UniProt Q07820) as the system for CCC1=NN2C(=N)/C(=C\c3ccc(OCc4cc(=O)n5nc(CC)sc5n4)c(OC)c3)C(=O)N=C2S1
**A:** 2.95 µM (active)

**Q:** Okay, and Cc1ccc(/C=C2\SC(=S)N(Cc3ccccc3)C2=O)o1 ?
**A:** 3.76 µM (not active)

**Q:** Okay, and CCN1C(=O)/C(=C\c2ccc(-c3ccc([N+](=O)[O-])cc3OC)o2)S/C1=N\c1cccc(C(=O)O)c1 ?
**A:** 6.7 µM (active)

**Q:** Okay, and O=[N+]([O-])c1cc([N+](=O)[O-])c2cccnc2c1Oc1ccccc1O ?
**A:** 2.82 µM (active)

**Q:** Okay, and O=C(O)c1cc(N2N=C(C(F)(F)F)/C(=C/C=C/c3ccco3)C2=O)ccc1Cl ?
**A:** 4.69 µM (active)

Provide IC50 values for the following items, in order.
1. CCOc1ccc(NC(=O)N(CCN2CCOCC2)Cc2ccc3c(c2)CCCN3CC)cc1
2. O=C(Nc1ccc2[nH]c(-c3ccc4[nH]cnc4c3)nc2c1)c1cccs1
3. Cc1cc(C)c(S(=O)(=O)Nc2cc(SCC(=O)O)c(O)c3ccccc23)cc1C

**A:**
0.852 µM (active)
7.21 µM (active)
10.5 µM (active)

====

biological target: Endoribonuclease toxin MazF (Escherichia coli K-12); assay: substrate-only fluorescence increase artefacts – biochemical, single-stranded RNase substrate, counter-screen for MazEF activator project, dose response (AID 588502); format: functional
Sequence (P0AE70 whole entry): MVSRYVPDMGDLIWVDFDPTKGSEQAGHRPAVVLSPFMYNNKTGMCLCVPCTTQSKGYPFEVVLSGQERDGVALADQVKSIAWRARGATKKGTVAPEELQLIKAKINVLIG
Active and inactive are the calls of the source.
Please answer using one outcome listed in 1 (yes) = active, 0 (no) = inactive

See these solved cases before continuing.
**Q:** Fill in: this test's call for N#C/C(=C/C1=C(N2CCOCC2)C(=C/c2cccc([N+](=O)[O-])c2)/CC1)C(=O)Nc1ccccc1F is ___
**A:** 0 (no)

**Q:** Okay, and COc1ccc2c(c1)c1nc3ccccc3nc1n2CC(=O)OC(C)C ?
**A:** 1 (yes)

**Q:** Okay, and CCCn1c(SCC(=O)Nc2nc3ccccc3s2)nc2c1c(=O)n(C)c(=O)n2C ?
**A:** 0 (no)

Kindly consider the entry below.
**Q:** Fill in: this test's call for Cn1ncc(/N=C/c2c(O)ccc3ccccc23)c1C(=O)Nc1cccc(Cl)c1 is ___
**A:** 0 (no)

====

Would you kindly list AC50 for each of these compounds?
biological target: Cytochrome P450 2C19 (Homo sapiens); test: Cytochrome panel assay with activity outcomes. Panel member name: p450-cyp2c19 Compounds with AC50 equal or less than 10 uM are considered active; type: functional; conditions: read-out: AC50
Sequence (P33261 whole entry): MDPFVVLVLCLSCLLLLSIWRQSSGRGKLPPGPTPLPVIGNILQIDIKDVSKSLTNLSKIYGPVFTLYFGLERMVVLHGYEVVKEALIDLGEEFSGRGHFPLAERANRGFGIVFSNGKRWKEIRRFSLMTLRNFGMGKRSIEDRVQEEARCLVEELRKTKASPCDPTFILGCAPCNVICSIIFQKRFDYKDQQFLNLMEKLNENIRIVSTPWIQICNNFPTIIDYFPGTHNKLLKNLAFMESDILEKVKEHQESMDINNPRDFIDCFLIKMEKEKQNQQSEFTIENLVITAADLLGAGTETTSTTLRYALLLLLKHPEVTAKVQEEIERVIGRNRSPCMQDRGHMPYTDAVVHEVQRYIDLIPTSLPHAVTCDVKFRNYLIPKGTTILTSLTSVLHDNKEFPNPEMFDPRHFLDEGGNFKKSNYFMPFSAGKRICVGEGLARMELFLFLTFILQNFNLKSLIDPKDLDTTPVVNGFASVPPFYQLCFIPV

Provide AC50 values for the following items, in order.
1. CC(C)(C)CNC(CO)C12CC3CC(CC(C3)C1)C2 (stereo unspecified)
2. Cc1cc(C)c(S(C)(=O)=O)c(Oc2ccc(F)cc2)n1
3. CCOC(=O)c1cnn(-c2cc(Oc3ccccc3)ncn2)c1N

**A:**
1: 15.8 µM (inconclusive); 2: 20 µM (inconclusive); 3: 31.6 µM (inconclusive)

Provide AC50 values for the following items, in order.
1. Cc1cc(C(=O)OCC(=O)NCCCN2CCCC2=O)c2ccccc2n1
2. COC(=O)[C@@]1(Cc2ccc(F)cc2)[C@@H]2[C@@H](CC(=O)[C@H]2CC(=O)C(=O)N(C)C)CN1C(=O)c1ccccc1
3. CCOC(=O)N1CCN(C(=O)CN(C)S(=O)(=O)c2ccc3c(c2)C(C)(C)C(=O)N3C)CC1
4. CC1CCC2(CC1)N=C(N)Nc1nc3ccccc3n12 (stereo unspecified)

**A:**
35.5 µM (inconclusive)
39.8 µM (inconclusive)
3.16 µM (inconclusive)
17.8 µM (inconclusive)

Provide AC50 values for the following items, in order.
1. CCN1CC=C2C(C#N)=C(N)C(C#N)(C#N)[C@H](c3ccoc3)[C@H]2C1
2. COc1ccc(-n2c(=O)c(CCc3ccccc3)nc3cnc(N4CCOCC4)nc32)cc1
3. Cc1cnc(CNc2ncnc3ccc(-c4ccccc4CN(C)C)cc23)cn1
4. CCN=C(S)NNC(=O)c1cc(C)on1
5. CC(C)CN=C(S)N1CCN(C)CC1

**A:**
["39.8 µM (inconclusive)", "25.1 µM (inconclusive)", "31.6 µM (inconclusive)", "7.94 µM (inconclusive)", "39.8 µM (inconclusive)"]

====

Would you kindly list IC50 for each of these compounds?
molecular target: Rac GTPase-activating protein 1 (Homo sapiens); assay: blockers of MgcRacGAP-driven Rac1 GTP hydrolysis – biochemical, ADP Hunter fluorescence, primary and confirmatory, confirmation (AID 624330); format: functional
Sequence (Q9H0H5 whole entry): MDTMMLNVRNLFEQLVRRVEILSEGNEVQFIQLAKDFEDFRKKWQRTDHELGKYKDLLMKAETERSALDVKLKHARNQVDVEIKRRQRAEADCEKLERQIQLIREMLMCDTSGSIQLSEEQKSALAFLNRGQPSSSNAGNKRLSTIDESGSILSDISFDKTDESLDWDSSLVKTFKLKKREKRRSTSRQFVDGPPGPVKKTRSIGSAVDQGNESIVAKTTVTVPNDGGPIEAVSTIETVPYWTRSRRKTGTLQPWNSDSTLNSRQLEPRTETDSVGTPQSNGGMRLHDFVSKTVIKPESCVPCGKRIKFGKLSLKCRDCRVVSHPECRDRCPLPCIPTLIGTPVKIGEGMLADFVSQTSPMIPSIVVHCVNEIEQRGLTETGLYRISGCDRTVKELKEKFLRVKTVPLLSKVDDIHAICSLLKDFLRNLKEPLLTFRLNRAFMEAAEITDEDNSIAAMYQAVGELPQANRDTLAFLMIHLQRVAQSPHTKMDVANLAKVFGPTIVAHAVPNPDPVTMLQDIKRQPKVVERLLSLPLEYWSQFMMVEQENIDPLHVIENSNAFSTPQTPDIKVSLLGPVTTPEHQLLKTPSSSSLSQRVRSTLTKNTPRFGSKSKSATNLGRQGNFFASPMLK
Activity calls are given as the source filed them.

**Q:** Quick one: IC50 of C/C(=N/NC(=O)CSc1nc2ccccc2n1C)c1ccc(O)cc1 ?
**A:** 138 µM (active)

**Q:** Okay, and COc1cc2nc(N3CCNCC3)nc(N)c2cc1OC ?
**A:** 63.1 µM (active)

**Q:** Okay, and O=C(Cc1coc2cc(O)ccc12)NNC(=O)c1cccs1 ?
**A:** 32.7 µM (active)

**Q:** Okay, and C[n+]1c(-c2ccccc2)cc2c(=Cc3ccc([N+](=O)[O-])cc3)c3ccccc3n21 ?
**A:** 31.5 µM (active)

Provide IC50 values for the following items, in order.
1. Cc1cc(C)c2c(=N)c3ccccc3n(CCCCCCCCn3c4ccccc4c(=N)c4c(C)cc(C)nc43)c2n1
2. CCOC(=O)C1CCN(C2=NC(=O)/C(=C/c3ccc(O)cc3)S2)CC1
3. COc1ccc(NC2CCCN(C(=O)COc3ccc(C(C)=O)cc3)C2)cc1 (stereo not given)
4. CCOc1cc(/C=N\NC(=O)CC(=O)NCCc2ccccc2)ccc1O
5. COc1cc(/C=N\NC(=O)c2c(C)nc3cc(C)ccn23)ccc1O

**A:**
1. 26.3 µM (active)
2. 21.2 µM (active)
3. 84 µM (active)
4. 46.5 µM (active)
5. 33.3 µM (active)

====

molecular target: Heat shock factor protein 1 (Mus musculus, UniProt P38532); experiment: enhancement of HSF1-driven luciferase signal – cell-based, NIH3T3, luminescence, dose retest, confirmation (AID 435004); format: functional;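 note: stress induced by proteasome inhibitor MG132 added 30 min after compound; luciferase reporter driven by HSF1 response element in NIH3T3 cells; actives raise luminescence as potentiators of the MG132 stress response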
Sequence (P38532 whole entry): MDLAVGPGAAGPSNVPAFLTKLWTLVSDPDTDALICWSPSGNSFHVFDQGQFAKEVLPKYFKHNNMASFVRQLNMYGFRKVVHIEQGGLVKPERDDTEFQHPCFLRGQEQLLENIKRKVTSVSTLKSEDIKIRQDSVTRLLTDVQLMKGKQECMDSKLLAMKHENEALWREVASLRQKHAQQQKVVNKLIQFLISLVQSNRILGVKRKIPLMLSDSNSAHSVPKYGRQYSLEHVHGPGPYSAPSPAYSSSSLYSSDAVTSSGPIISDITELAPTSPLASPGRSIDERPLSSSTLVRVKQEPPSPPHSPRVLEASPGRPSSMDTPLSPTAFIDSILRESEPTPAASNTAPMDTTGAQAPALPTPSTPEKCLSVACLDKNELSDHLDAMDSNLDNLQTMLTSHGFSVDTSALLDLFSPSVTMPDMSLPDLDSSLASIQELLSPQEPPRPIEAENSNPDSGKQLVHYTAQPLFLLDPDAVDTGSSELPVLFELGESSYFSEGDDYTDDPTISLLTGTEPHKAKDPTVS
Calls of active or inactive are those of the source.
Please answer using one outcome listed in class 1 = active, class 0 = inactive

**Q:** Fill in: this test's call for COc1ccc2c(c1)c(C(=O)CN1CCCCC1)c(C)n2C is ___
**A:** class 0

**Q:** Okay, and COc1ccc(C(O)(C(=O)NNc2ccc(C)cc2)c2cccs2)cc1 (stereo not drawn) ?
**A:** class 0

**Q:** Okay, and O=C(Nc1cccn2ncnc12)C(F)(F)F ?
**A:** class 0

**Q:** Okay, and Cn1cnc([N+](=O)[O-])c1S(=O)(=O)c1ccc(Cl)cc1 ?
**A:** class 1

**Q:** Okay, and c1ccc(Nc2c(-c3ccco3)nc3ccccn23)cc1 ?
**A:** class 1

---
**Q:** Fill in: this test's call for COc1cc(COCC(O)CN2CCN(CCN3C(=O)c4cccc5cccc(c45)C3=O)CC2)cc(OC)c1OC (stereo not drawn) is ___
**A:** class 1

**Q:** Okay, and O=C1/C(=C/c2ccccc2Cl)SC(=S)N1CCC(=O)N1CCCCC1CCO (stereo not drawn) ?
**A:** class 0

**Q:** Okay, and O=C(O)CN1C(=O)/C(=C/c2ccccc2Br)Oc2ccccc21 ?
**A:** class 0
